- measurement_target: Protein kinase 7 (PK7), Plasmodium falciparum 3D7 (PF3D7_0213400) (UniProt Q7YTF7)
- protocol_summary: inhibition of Plasmodium PK7 catalytic activity – biochemical, TCAMS antimalarial set, Kinase-Glo luminescence (AID 1159587)
- details: recombinant PfPK7, Kinase-Glo ATP depletion luminescence
The source made the active and inactive calls. The rule behind the calls is not given here.
measure_name: outcome

Examples with answers:
COc1cccc2c(NN=Cc3ccccc3F)ccnc12	inactive
CC(Nc1ncc(-c2ccsc2)c(-c2nccs2)n1)c1ccc2c(c1)OCCO2 (stereo not given)	inactive
O=C1C2=C(Nc3ccccc3SC2c2ccccc2)c2ccccc21 (stereo not given)	inactive
O=C(NCc1ccc(C(=O)N2CCC(N3CCCCC3)CC2)cc1)c1cc(-c2cccc(C(F)(F)F)c2)ccc1O	inactive
COC(=O)c1cccc(NC(=O)NC2CCN(c3ccnc(Nc4ccc(F)cc4)n3)C2)c1 (stereo not given)	inactive

Query: Report its outcome with Protein kinase 7 (PK7), Plasmodium falciparum 3D7 (PF3D7_0213400) (UniProt Q7YTF7) as the test system: COc1ccc2nccc(NN=Cc3ccccc3[N+](=O)[O-])c2c1
Reply: inactive

Query: Report its outcome with Protein kinase 7 (PK7), Plasmodium falciparum 3D7 (PF3D7_0213400) (UniProt Q7YTF7) as the test system: CCN(CC)CCN(Cc1ccc(-c2ccc(C(F)(F)F)cc2)cc1)C(=O)Cn1c(CCc2cc(F)c(F)c(F)c2)nc(=O)c2ccccc21
Reply: inactive

Query: Report its outcome with Protein kinase 7 (PK7), Plasmodium falciparum 3D7 (PF3D7_0213400) (UniProt Q7YTF7) as the test system: CCCC(=O)NC(c1ccc(C(C)C)cc1)c1ccc2cccnc2c1O (stereo not given)
Reply: inactive

Query: Report its outcome with Protein kinase 7 (PK7), Plasmodium falciparum 3D7 (PF3D7_0213400) (UniProt Q7YTF7) as the test system: COc1ccc2c(NN=Cc3cccc(Cl)c3)ccnc2c1
Reply: inactive

Query: Report its outcome with Protein kinase 7 (PK7), Plasmodium falciparum 3D7 (PF3D7_0213400) (UniProt Q7YTF7) as the test system: Cc1cc(C(=O)Nc2ccc3c(c2)CCN3C2CCN(Cc3cccc(F)c3F)C2)no1 (stereo not given)
Reply: inactive

---

- measurement_target: L-lactate dehydrogenase (Plasmodium falciparum (isolate CDC / Honduras)) (UniProt Q27743)
- Sequence (Q27743 whole entry, looked up): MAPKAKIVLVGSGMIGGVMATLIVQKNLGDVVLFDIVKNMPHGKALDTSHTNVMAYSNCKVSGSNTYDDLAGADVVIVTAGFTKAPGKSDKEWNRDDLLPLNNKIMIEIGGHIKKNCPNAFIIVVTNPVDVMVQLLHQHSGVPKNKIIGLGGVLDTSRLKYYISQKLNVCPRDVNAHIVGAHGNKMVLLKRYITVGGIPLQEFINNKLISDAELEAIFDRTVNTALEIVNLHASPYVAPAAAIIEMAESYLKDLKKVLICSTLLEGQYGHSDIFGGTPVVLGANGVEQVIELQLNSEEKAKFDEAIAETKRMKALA
- protocol_summary: PfLDH activity inhibition – cell lysate, 3D7 strain, counter-screen for P. falciparum growth inhibition project (AID 2304);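 note: 0% = vehicle and 100% = reference inhibitor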
- details: P. falciparum 3D7 crude extract, LDH APAD/NBT absorbance; at 2 µM; stronger effect = higher value
Calls of active or inactive are those of the source. How the calls were made is not given here.
measure_name: inhibition

Query: Give the value of inhibition reported for the following: CN1CCC(c2csc3ccc(NC(=O)Nc4ccc(-c5ccncc5)c5ccccc45)cc23)CC1
Reply: 0% (inactive)

Query: Give the value of inhibition reported for the following: CCCCCN=C(N)c1ccc(OCCCCCOc2ccc(C(N)=NCCCCC)cc2)cc1
Reply: 6% (inactive)

Query: Give the value of inhibition reported for the following: CCN(CC)CCCN(C(=O)c1cc2c(C)nn(-c3ccccc3)c2s1)c1nc(-c2ccc(OC)cc2)cs1
Reply: -7% (inactive)

Query: Give the value of inhibition reported for the following: CCOc1ccc(OCC)c(N2CCN(CCCCNC(=O)c3ccc(NC(=O)c4ccc(Cl)cc4)cc3)CC2)c1
Reply: 1% (inactive)

Query: Give the value of inhibition reported for the following: Cc1ccc(Nc2nccc(NCC(O)c3cccc(C)c3)n2)cc1 (centres undefined)
Reply: 0% (inactive)

Query: Give the value of inhibition reported for the following: O=C(NCc1cccc(F)c1)Nc1cccc(-c2ccc(-c3nc4ccc(C(F)(F)F)cc4[nH]3)cc2)c1
Reply: -4% (inactive)

Query: Give the value of inhibition reported for the following: CCOc1ccc(-c2nonc2NC(=O)c2ccccc2F)cc1OCC
Reply: 0% (inactive)

Query: Give the value of inhibition reported for the following: O=C(Nc1cccc(N2CCC(NCCCc3ccncc3)CC2)c1)c1cccc(C(F)(F)F)c1
Reply: 4% (inactive)

Query: Give the value of inhibition reported for the following: COc1ccc2ncc(F)c(CCN3CC[C@@H](CNCc4cc5c(cn4)OCS5)C3)c2n1
Reply: 0% (inactive)

---

- measurement_target: L-lactate dehydrogenase (Plasmodium falciparum (isolate CDC / Honduras))
- protocol_summary: PfLDH activity inhibition – cell lysate, 3D7 strain, counter-screen for P. falciparum growth inhibition project (AID 2304);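 note: 0% = vehicle and 100% = reference inhibitor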
- details: P. falciparum 3D7 crude extract, LDH APAD/NBT absorbance; at 2 µM; stronger effect = higher value
Give inhibition for every item shown.
Write down the numeric answer in % and omit the unit.

Query: Give the value of inhibition reported for the following: O=C1Nc2cccc3c2C1(CCCCN1CCC(c2c[nH]c4cc(C(F)(F)F)ccc24)CC1)CCC3 (centres undefined)
Reply: 3

Query: Give the value of inhibition reported for the following: Cc1cc(O)c(CNC2CCCCC2)cc1C
Reply: -2

Query: Give the value of inhibition reported for the following: CN1CC[C@@H](Oc2cc(CNC(=O)c3ccc(-c4ccc(Cl)cc4)s3)ccc2C(F)(F)F)C1
Reply: 2

Query: Give the value of inhibition reported for the following: CC(CN1CCN(C)CC1)C(=O)Nc1cccc(-c2cccc(-c3nc4ccccc4[nH]3)c2)c1 (centres undefined)
Reply: -3

Query: Give the value of inhibition reported for the following: Fc1ccc2c(NN=Cc3ccc(Cl)cc3)ccnc2c1
Reply: -1

Query: Give the value of inhibition reported for the following: Cc1cc(-c2cccc(CNCc3ccccc3)c2)ccc1S(=O)(=O)NCCN1CCCC1
Reply: 1

Query: Give the value of inhibition reported for the following: CC(=O)Nc1ccc(C(=O)Nc2ccc(-c3cccc(-c4nc5c(C)cccc5[nH]4)c3)cc2)cn1
Reply: -7

Query: Give the value of inhibition reported for the following: O=C1O[C@H](c2ccccc2)[C@H](c2ccccc2)N(C(=O)OCc2ccccc2)[C@H]1Cc1ccccc1C1CCCC1
Reply: 1

Query: Give the value of inhibition reported for the following: O=C(Nc1ccc2oc(-c3ccc(Cl)cc3Cl)nc2c1)c1ccc([N+](=O)[O-])o1
Reply: 3

---

- protocol_summary: human hepatoma cell viability loss – ATP luminescence, cytotoxicity control for P. falciparum antimalarial project, primary screen (AID 2303);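 note: 0% = DMSO wells and 100% = digitonin-killed cells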
- details: HepG2 viability, 24-48 h, at 10 µM, stronger effect = higher value
measure_name: inhibition (%)
Write down the numeric answer in % and omit the unit.

Query: Give the value of inhibition reported for the following: O=C(NCCc1ccccc1F)c1ccc(N2CCN(c3ccncc3)CC2)cn1
Reply: 8

Query: Give the value of inhibition reported for the following: C[C@@H]1CC[C@H](NC(=O)[C@H](CC2CCCC2)NC(=O)N2CCNCC2)C(=O)CN1S(=O)(=O)c1ccccn1
Reply: 5

Query: Give the value of inhibition reported for the following: Cc1cc(N(C)CCCN(C)C)nc(Nc2ccc(Br)cc2)n1
Reply: 4

Query: Give the value of inhibition reported for the following: CCOc1ccc(-c2nonc2NC(=O)c2ccc(F)cc2)cc1OCC
Reply: 36

Query: Give the value of inhibition reported for the following: Cc1ccc2nc(/N=C(\N)NC(=O)NC3CCCCC3)nc(C)c2c1
Reply: 8

Query: Give the value of inhibition reported for the following: CC(=O)Nc1ncc(C(=O)Nc2cccc(-c3cccc(-c4nc5ccc(C(F)(F)F)cc5[nH]4)c3)c2)s1
Reply: 76

Query: Give the value of inhibition reported for the following: COc1ccc(/C=C/C(=O)N2CCc3cc4nccc(N5CCN6CCC[C@H]6C5)c4cc32)cc1
Reply: -3

Query: Give the value of inhibition reported for the following: CN(CCCc1c[nH]c2ccccc12)CC1CCN(C(=O)/C=C/c2ccc(Cl)c(Cl)c2)CC1
Reply: 37

Query: Give the value of inhibition reported for the following: CCCn1cnc2cc(C(=O)Nc3ccc(-c4cccc(CN(C)C)c4)cc3)ccc2c1=O
Reply: 26

Query: Give the value of inhibition reported for the following: O=C(NCCCCN1CCC(c2ccc([N+](=O)[O-])cc2)CC1)c1ccc(NC(=O)c2ccc(Cl)cc2)cc1
Reply: 15

Query: Give the value of inhibition reported for the following: COc1ccc(Nc2nccc(NCC(O)c3ccc(C(F)(F)F)cc3)n2)cc1 (centres undefined)
Reply: 6

Query: Give the value of inhibition reported for the following: O=C(NCC1COc2ccccc2O1)c1cnc2c(c1)nc(-c1cnc(-c3ccccc3)[nH]1)n2CCSCc1c(F)cccc1Cl (centres undefined)
Reply: 6

Query: Give the value of inhibition reported for the following: CCOC(=O)CN1Cc2cc(NCc3ccc4ccc5nc(C)[nH]c(=O)c5c4c3)ccc2C1=O
Reply: 40

Query: Give the value of inhibition reported for the following: Cc1nc(-c2cccc(Nc3nccc(NCC(O)c4ccc(C(F)(F)F)cc4)n3)c2)cs1 (centres undefined)
Reply: 33

Query: Give the value of inhibition reported for the following: Cc1ccc(C(c2nnnn2C2CCCC2)N(Cc2ccco2)Cc2ccccc2Cl)cc1 (centres undefined)
Reply: 8

Query: Give the value of inhibition reported for the following: COc1ccc(CN2CCC(NCc3ccc(C(F)(F)F)cc3)CC2)cc1
Reply: 37

Query: Give the value of inhibition reported for the following: COc1ccc(-c2cccc(NC(=O)c3ccc(C#N)cc3)c2)cc1CN1CCCC1
Reply: 30

Query: Give the value of inhibition reported for the following: Cc1cc(N[C@@H](CC(C)C)C(=O)NCc2cccs2)nc(NCCc2ccccc2)n1
Reply: 1

Query: Give the value of inhibition reported for the following: Cc1ccc(OC2CCN(c3ccc(C(=O)NC4CC4)cn3)CC2)cc1
Reply: 11
